System: D54 ERlucT glycosylation luciferase reporter, luminescence, 24 h
Assay: N-linked glycosylation inhibitors, luciferase reporter, dose response, D54 ERlucT cells, luminescence, cherry-picks (AID 624491);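 active = fitted curve crossing a set activation limit at or below the highest valid dose tested; inconclusive = flat fit at 30 to 70% activation, or poor fit; inactive = the rest, including signal decreases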;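 also: signal gain reflects blocked N-linked glycosylation of a luciferase reporter; actives raise luciferase signal so AC26 marks activators of the reporter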
Return exactly one item of active, inactive

molecule: C=C1c2nc3ccccc3n2C=C(c2ccc(C)cc2)N1c1ccccc1
className: active
//
molecule: Cc1ccc(-c2cc(C(=O)N3CC(C)OC(C)C3)c3ccccc3n2)o1 (stereo not drawn)
className: active
//
molecule: O=S(=O)([N-]c1nc2ccccc2nc1-n1cc[n+](Cc2ccccc2)c1)c1ccccc1
className: active

Enquiry: # lookup: test call for Cc1cnc(NC(=O)c2cc(S(=O)(=O)N(C)C)ccc2N2CCCC2)s1
Return: active

Enquiry: Queued: CC(=O)c1ccc(N2CCN(C(=O)c3cccc(Oc4ccccc4)c3)CC2)cc1
Return: active

Enquiry: Queued: CCC1=Nc2cc(C(=O)NCCCOC)ccc2Sc2ccccc21
Return: active

Enquiry: Queued: CC(=O)c1cccc(-c2ccnc3c2CC(C(=O)NCC2CCOCC2)O3)c1 (stereo not drawn)
Return: active

Enquiry: Queued: C[C@@]12C(=O)Nc3cc(F)ccc3C(=O)N1[C@H]1c3ccccc3OC[C@@H]1[C@@H]2c1ccccc1
Return: active

Enquiry: Queued: COc1cc(C2Sc3ccccc3NC3=C2C(=O)OC3)cc(OC)c1OC (stereo not drawn)
Return: active

Enquiry: Queued: COc1c(Br)cc(Br)cc1/C=N/NC(=O)c1cccnc1
Return: active

---

System: D54 ERlucT glycosylation luciferase reporter, luminescence, 24 h
Assay: N-linked glycosylation inhibitors, luciferase reporter, dose response, D54 ERlucT cells, luminescence, cherry-picks (AID 624491);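 also: signal gain reflects blocked N-linked glycosylation of a luciferase reporter; actives raise luciferase signal so AC26 marks activators of the reporter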
attributeMeasured: AC26

Known AC26 results, listed for orientation:
compound: CC(C)(C)c1ccc(OCc2ccc(C(=O)Nc3cccnc3)o2)cc1
AC26: 7560 nM
//
compound: c1ccc(-c2nc(-n3ccnc3)nc(-n3ccnc3)n2)cc1
AC26: 2780 nM
//
compound: Cn1c(=O)n(C)c2cc(NS(=O)(=O)c3ccc(C(C)(C)C)cc3)ccc21
AC26: 9340 nM
//
compound: CC(Nc1nc(-c2ccccc2O)nc2ccccc12)c1ccccc1 (stereo unspecified)
AC26: 65.6 nM
//
compound: COC(=O)c1ccc2c(=O)n(Cc3ccco3)c(SCC(=O)Nc3cc(C)on3)nc2c1
AC26: 2190 nM

Enquiry: Lab note: need AC26 with D54 ERlucT glycosylation luciferase reporter, luminescence, 24 h for entry CCOc1ccc(Nc2c3ccccc3nc3ccccc23)cc1 , please look it up.
Return: 365 nM

Enquiry: Queued: NC(N)=N/N=C/c1ccc2cccc(OCc3ccccc3)c2n1
Return: 4150 nM

Enquiry: Queued: Cc1ccc(Sc2c(CO)c(-c3ccccc3)nn2C)cc1
Return: 341 nM

Enquiry: Queued: CCN(c1cccc(C)c1)S(=O)(=O)c1ccc(-c2cc(C)no2)s1
Return: 1270 nM

Enquiry: Queued: CCn1c(=O)c2cc(C(=O)NCCN(C)C)sc2c2ccccc21
Return: 5230 nM

Enquiry: Queued: Cc1ccc(N2CCN(C3=NC(=O)/C(=C\c4cn[nH]c4-c4ccccc4)S3)CC2)cc1
Return: 1350 nM

Enquiry: Queued: Cc1ccc(S(=O)(=O)[N-]c2nc3ccccc3nc2-n2cc[n+](Cc3ccccc3)c2)cc1
Return: 118 nM

---

Test system: D54 ERlucT glycosylation luciferase reporter, luminescence, 24 h
Assay: N-linked glycosylation inhibitors, luciferase reporter, dose response, D54 ERlucT cells, luminescence, cherry-picks (AID 624491);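 also: signal gain reflects blocked N-linked glycosylation of a luciferase reporter; actives raise luciferase signal so AC26 marks activators of the reporter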
Measured AC26, listed per entry.

Enquiry: Lab note: need AC26 with D54 ERlucT glycosylation luciferase reporter, luminescence, 24 h for entry CC1=CC(C)[C@H](/C=N/n2c(=O)[nH]c3c([nH]c4ccc(Br)cc43)c2=O)C(C)C1 (stereo not given in full) , please look it up.
Return: 3.78 µM

Every entry's value here was drawn from PubChem BioAssay AID624491.
